target: PARP2 (Mus musculus); construct: made in house; host or cells: insect cells; experiment: PARP2 autopoly(ADP-ribosyl)ation (autoPARylation) enzyme assay with [32P]NAD+; format: biochemical, murine
Sequence (O88554 whole entry): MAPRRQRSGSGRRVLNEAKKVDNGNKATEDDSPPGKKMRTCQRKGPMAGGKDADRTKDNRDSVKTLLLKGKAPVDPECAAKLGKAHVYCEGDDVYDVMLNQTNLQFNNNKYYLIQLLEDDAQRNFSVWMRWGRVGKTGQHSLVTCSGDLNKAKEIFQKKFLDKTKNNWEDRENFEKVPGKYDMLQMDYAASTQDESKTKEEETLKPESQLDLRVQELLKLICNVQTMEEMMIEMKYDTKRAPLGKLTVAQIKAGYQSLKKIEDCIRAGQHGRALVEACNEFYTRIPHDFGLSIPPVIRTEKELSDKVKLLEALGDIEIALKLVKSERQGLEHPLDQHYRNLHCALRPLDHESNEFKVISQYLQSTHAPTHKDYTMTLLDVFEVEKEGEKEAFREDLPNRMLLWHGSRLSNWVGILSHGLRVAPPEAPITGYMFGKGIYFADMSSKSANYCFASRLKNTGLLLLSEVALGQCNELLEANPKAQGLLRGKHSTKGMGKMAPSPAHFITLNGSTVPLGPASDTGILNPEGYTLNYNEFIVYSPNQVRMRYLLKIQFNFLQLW
experimental-readout: pIC50
Answers are plain numbers, as −log10 of the molar value.

Could you share which pIC50 value was measured for `Cc1cn([C@H]2CNC[C@@H](CN)O2)c(=O)[nH]c1=O` ?
3.88

---

molecular target: PARP1 (Homo sapiens); construct: made in house; host or cells: insect cells; test: Steady-state kinetic analysis of the PARP1 enzymatic reaction; format: biochemical; conditions: mixed-type inhibition, read-out: Ki (affinity for the free enzyme)
Sequence (P09874 whole entry): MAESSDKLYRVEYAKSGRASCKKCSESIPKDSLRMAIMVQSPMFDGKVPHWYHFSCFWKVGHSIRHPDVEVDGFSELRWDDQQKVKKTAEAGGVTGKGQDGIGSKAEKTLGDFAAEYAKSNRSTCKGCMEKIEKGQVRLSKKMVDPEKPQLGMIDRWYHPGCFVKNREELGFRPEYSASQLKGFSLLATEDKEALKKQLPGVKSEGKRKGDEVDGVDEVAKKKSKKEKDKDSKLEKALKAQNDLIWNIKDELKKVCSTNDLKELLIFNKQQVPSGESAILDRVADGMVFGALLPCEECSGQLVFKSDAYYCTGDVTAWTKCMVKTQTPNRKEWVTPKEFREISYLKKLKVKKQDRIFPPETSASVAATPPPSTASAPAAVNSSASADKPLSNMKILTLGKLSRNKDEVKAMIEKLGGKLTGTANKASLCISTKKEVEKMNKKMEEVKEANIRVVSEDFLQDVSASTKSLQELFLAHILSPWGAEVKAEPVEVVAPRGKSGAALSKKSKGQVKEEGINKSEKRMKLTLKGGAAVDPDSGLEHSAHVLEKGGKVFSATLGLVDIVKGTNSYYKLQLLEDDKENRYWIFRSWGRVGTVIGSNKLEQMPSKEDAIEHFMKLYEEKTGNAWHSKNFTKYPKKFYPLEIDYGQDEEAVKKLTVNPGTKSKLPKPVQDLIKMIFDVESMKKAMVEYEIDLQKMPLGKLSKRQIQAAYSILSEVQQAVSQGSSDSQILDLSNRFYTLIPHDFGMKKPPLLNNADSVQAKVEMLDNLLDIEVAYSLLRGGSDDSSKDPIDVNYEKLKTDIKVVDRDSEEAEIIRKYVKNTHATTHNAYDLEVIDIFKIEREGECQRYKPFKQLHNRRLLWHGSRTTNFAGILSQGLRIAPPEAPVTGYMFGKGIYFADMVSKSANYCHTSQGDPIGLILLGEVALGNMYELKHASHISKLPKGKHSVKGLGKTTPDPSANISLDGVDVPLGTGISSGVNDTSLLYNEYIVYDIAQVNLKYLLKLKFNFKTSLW
experimental-readout: Ki

The following compounds each have a reported value; give each one's Ki.
1. NC[C@@H]1CNC[C@H](n2cc(Br)c(=O)[nH]c2=O)O1 [Compound 13]
2. NC[C@@H]1CNC[C@H](n2cc(I)c(=O)[nH]c2=O)O1 [Compound 14]
3. NC[C@@H]1CNC[C@H](n2cc(Cl)c(=O)[nH]c2=O)O1 [Compound 12]

["25 µM", "15 µM", "79 µM"]

Could you share which Ki value was measured for Cc1cn([C@H]2CNC[C@@H](CN)O2)c(=O)[nH]c1=O [Compound 8] ?
12 µM

---

Target: PARP2 (Mus musculus)
Construct: made in house; host or cells: insect cells
Test: Steady-state kinetic analysis of the PARP2 enzymatic reaction
Assay type: biochemical, murine
Conditions: mixed-type inhibition, read-out: Ki (affinity for the free enzyme)
Method: The four efficient inhibitors of PARP1 (compounds 8, 12, 13, and 14) were further examined by detailed kinetic experiments to determine the type of inhibition and the inhibition constants. […] The kinetic parameters of the reaction (Vmax and KM) were calculated by fitting the Michaelis–Menten equation to the kinetic data. The type of inhibition was determined by analyzing the dependences of Vmax and KM on the concentration of the inhibitor in linearizing coordinates (Figure S3). […]
experimental-readout: pKi
Give bare numbers, as −log10 of the molar value.

Could you share which pKi value was measured for NC[C@@H]1CNC[C@H](n2cc(I)c(=O)[nH]c2=O)O1 [Compound 14] ?
3.92

---

biological target: PARP1 (Homo sapiens); construct: made in house; host or cells: insect cells; assay: PARP1 autopoly(ADP-ribosyl)ation (autoPARylation) enzyme assay with [32P]NAD+; format: biochemical; conditions: 0.3 mM [32P]NAD+; means ±SDs of three independent experiments; read-out: IC50, PARP1 activity in the autoPARylation reaction
Task for the reader: assign each of the following molecules its reported IC50.
Numbers only, in µM.

Worked examples follow.
{"smiles-structure": "NC[C@@H]1CNC[C@H](n2ccc(=O)[nH]c2=O)O1", "target-or-test-system": "PARP1 (Homo sapiens)", "endpoint-unit": "µM", "IC50": 420}
{"smiles-structure": "NC[C@@H]1CNC[C@H](n2cc(I)c(=O)[nH]c2=O)O1", "target-or-test-system": "PARP1 (Homo sapiens)", "endpoint-unit": "µM", "IC50": 12}
{"smiles-structure": "NC[C@@H]1CNC[C@H](n2cc(Cl)c(=O)[nH]c2=O)O1", "target-or-test-system": "PARP1 (Homo sapiens)", "endpoint-unit": "µM", "IC50": 45}
{"smiles-structure": "Cc1cn([C@H]2CN(CC(=O)O)C[C@@H](CN)O2)c(=O)[nH]c1=O", "target-or-test-system": "PARP1 (Homo sapiens)", "endpoint-unit": "µM", "IC50": 60}
{"smiles-structure": "NC[C@@H]1CN(CC(=O)O)C[C@H](n2cc(I)c(=O)[nH]c2=O)O1", "target-or-test-system": "PARP1 (Homo sapiens)", "endpoint-unit": "µM", "IC50": 70}

Now take the following molecule into account.
Could you share which IC50 value was measured for `NC[C@@H]1CNC[C@H](n2cc(Br)c(=O)[nH]c2=O)O1` ?
30
